- system: Solute carrier organic anion transporter family member 1B1 (Homo sapiens)
- Sequence (Q9Y6L6 whole entry): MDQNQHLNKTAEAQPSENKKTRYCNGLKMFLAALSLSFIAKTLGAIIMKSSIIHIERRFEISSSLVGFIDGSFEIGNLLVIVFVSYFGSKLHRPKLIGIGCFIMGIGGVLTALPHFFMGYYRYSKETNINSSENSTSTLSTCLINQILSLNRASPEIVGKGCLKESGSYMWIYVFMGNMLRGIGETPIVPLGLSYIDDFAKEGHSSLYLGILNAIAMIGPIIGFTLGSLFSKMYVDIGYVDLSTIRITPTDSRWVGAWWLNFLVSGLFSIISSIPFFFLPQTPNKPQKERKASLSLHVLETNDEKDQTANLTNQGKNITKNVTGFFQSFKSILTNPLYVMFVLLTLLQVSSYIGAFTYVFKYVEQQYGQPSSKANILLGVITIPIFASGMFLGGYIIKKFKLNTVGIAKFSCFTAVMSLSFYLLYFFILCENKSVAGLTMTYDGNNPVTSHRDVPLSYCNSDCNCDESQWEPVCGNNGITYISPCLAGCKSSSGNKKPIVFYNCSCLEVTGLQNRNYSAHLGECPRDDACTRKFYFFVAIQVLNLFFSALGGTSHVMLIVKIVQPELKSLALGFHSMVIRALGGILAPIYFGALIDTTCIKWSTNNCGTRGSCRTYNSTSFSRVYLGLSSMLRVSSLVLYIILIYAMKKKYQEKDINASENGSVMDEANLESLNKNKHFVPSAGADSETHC
- condition-description: chinese hamster, cho, 10 µM
endpoint-label: residual activity (%)
Only the number, expressed in %, is required.

Item `O=C1c2ccccc2C(=O)c2c(O)c(O)cc(O)c21` has what recorded residual activity?
100.1

Entry CN(C)C(=O)Oc1cccc([N+](C)(C)C)c1.[Br-] [NEOSTIGMINE BROMIDE] has what residual activity?
95.12

Recorded residual activity of `Clc1ccc(C(c2ccc(Cl)cc2)C(Cl)(Cl)Cl)cc1` , please.
124.5

Item CN(C)CCCN1c2ccccc2Sc2ccccc21.Cl [PROMAZINE HYDROCHLORIDE] has what recorded residual activity?
82.72

Fill in the blank: the reported residual activity of `COc1ccc(C(=O)/C=C/c2ccccc2)cc1` is ____.
100.4

Sample CCN(CC)CCOC(=O)C(c1ccccc1)c1ccccc1.Cl [ADIPHENINE HYDROCHLORIDE] — what was its residual activity?
59.48

Return reported residual activity; argument: `O=c1c(O)c(-c2ccccc2)oc2ccccc12`
133.5

What does the data say about its residual activity? Entry: `Nc1nc(/C(=C/CC(=O)O)C(=O)N[C@@H]2C(=O)N3C(C(=O)O)=CCS[C@H]23)cs1`
90.54

Suppose we examine the compound `C[C@H](CCC(=O)O)[C@H]1CC[C@H]2[C@@H]3[C@H](O)C[C@@H]4C[C@H](O)CC[C@]4(C)[C@H]3CC[C@]12C` ; what residual activity value has been reported?
37.88
